The origin of these recorded values is patent US20030135023A1.

Square brackets hold non-standard residues; d marks the D form. Peptide text beside a SMILES is read from it. Aoc(2) = CCCCCC[C@H](N)C(=O)O; Tle = CC(C)(C)[C@H](N)C(=O)O; Aze = O=C(O)[C@@H]1CCN1
Lab note: Ki readings collected with purified porcine DP IV (Sus scrofa, UniProt P22411) for the following compounds.
Sequence (P22411 whole entry): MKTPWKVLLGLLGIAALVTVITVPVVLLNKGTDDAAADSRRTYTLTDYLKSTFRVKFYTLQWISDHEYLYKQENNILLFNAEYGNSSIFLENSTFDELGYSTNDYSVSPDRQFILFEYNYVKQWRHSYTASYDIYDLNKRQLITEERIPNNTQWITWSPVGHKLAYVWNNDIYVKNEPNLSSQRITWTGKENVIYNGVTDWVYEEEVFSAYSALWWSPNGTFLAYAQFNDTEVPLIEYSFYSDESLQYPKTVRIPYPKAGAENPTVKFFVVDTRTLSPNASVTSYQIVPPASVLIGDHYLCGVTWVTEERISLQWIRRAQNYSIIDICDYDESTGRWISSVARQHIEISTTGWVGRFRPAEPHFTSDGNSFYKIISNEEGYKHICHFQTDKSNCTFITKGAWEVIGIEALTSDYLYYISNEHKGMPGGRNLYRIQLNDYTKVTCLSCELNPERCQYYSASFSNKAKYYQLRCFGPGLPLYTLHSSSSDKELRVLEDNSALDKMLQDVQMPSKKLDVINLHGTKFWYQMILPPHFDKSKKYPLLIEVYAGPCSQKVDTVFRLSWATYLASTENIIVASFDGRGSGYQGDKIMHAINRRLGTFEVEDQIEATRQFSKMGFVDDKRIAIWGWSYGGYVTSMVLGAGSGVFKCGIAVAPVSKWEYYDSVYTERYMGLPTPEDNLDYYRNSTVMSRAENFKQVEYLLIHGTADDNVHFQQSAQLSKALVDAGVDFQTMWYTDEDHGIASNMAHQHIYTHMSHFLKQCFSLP
measured_quantity: Ki (µM)

CC(C)(C)[C@H](N)C(=O)N1CCC[C@H]1C(=O)N[C@H](C(=O)O)C(C)(C)C [t-butyl-Gly-Pro-t-butyl-Gly] (H-[Tle]-Pro-[Tle]-OH; N-terminus and C-terminus assumed) ... 14.1

(1) CC[C@H](C)[C@H](NC(=O)[C@@H]1CCCN1C(=O)[C@@H]1CCN1)C(=O)O [Aze−Pro-Ile, Aze-Pro-Ile] (H-[Aze]-Pro-Ile-OH; N-terminus and C-terminus assumed)
(2) CCCCCC[C@H](N)C(=O)N1CCC[C@H]1C(=O)N[C@H](C(=O)O)[C@@H](C)CC [AOA-Pro-Ile, 2-Amino octanoic acid-Pro-Ile] (H-[Aoc(2)]-Pro-Ile-OH)
In: Hi team, can someone confirm which has the larger Ki: 1 or 2 ? Thanks. Write down the label attached to your selection.
Out: 1

====

Biological target: purified porcine DP IV (Sus scrofa, UniProt P22411)
Experiment: Determination of IC50-values, Gly-Pro-pNA cleavage by DP IV
Assay type: biochemical
Conditions: Gly-Pro-pNA 0.4 mM, HEPES pH 7.6, 30° C.; read-out: IC50
Square brackets hold non-standard residues; d marks the D form. Peptide text beside a SMILES is read from it. aIle = CC[C@@H](C)[C@H](N)C(=O)O; Tic = O=C(O)[C@@H]1Cc2ccccc2CN1; Phg = N[C@H](C(=O)O)c1ccccc1; Tle = CC(C)(C)[C@H](N)C(=O)O; Aze = O=C(O)[C@@H]1CCN1; Abu = CC[C@H](N)C(=O)O
measured_quantity: IC50 (µM)

CC[C@@H](C)[C@H](NC(=O)[C@@H]1CCCN1C(=O)[C@@H](N)Cc1ccc(O)cc1)C(=O)O [Tyr-Pro-(allo)Ile, Tyr-Pro-allo-Ile] (H-Tyr-Pro-[aIle]-OH; N-terminus and C-terminus assumed) ... 64.1

(A) CC[C@H](C)[C@H](NC(=O)[C@@H]1CCCN1C(=O)[C@@H](N)c1ccccc1)C(=O)O [Phg-Pro-Ile] (H-[Phg]-Pro-Ile-OH; N-terminus and C-terminus assumed)
(B) CC[C@H](C)[C@H](NC(=O)[C@@H]1CCCN1C(=O)[C@@H]1Cc2ccccc2CN1)C(=O)O [Tic-Pro-Ile] (H-[Tic]-Pro-Ile-OH; N-terminus and C-terminus assumed)
(C) CC[C@H](C)[C@H](NC(=O)[C@@H]1CCCN1C(=O)[C@@H]1CCN1)C(=O)O [Aze−Pro-Ile, Aze-Pro-Ile] (H-[Aze]-Pro-Ile-OH; N-terminus and C-terminus assumed)
(D) CC[C@H](N)C(=O)N1CCC[C@H]1C(=O)N[C@H](C(=O)O)[C@@H](C)CC [Abu-Pro-Ile] (H-[Abu]-Pro-Ile-OH; N-terminus and C-terminus assumed)
(E) CC[C@H](C)[C@H](NC(=O)[C@@H]1CCCN1C(=O)[C@@H](N)C(C)(C)C)C(N)=O [t-butyl-Gly-Pro-Ile-NH2, t-butyl-Gly-Pro-Ile-amide] (H-[Tle]-Pro-Ile-NH2; N-terminus assumed)
In: Hey, can you sort those molecules up there by IC50, smallest first? Answer by listing the labels in the order asked for.
Out: E, D, C, A, B

====

Target: purified porcine DP IV (Sus scrofa, UniProt P22411)
Assay: Determination of Ki-values, Gly-Pro-pNA cleavage by DP IV
Type: biochemical
Details: Gly-Pro-pNA 0.05-0.4 mM
pKi: −log10 of the molar value. Square brackets hold non-standard residues; d marks the D form. Peptide text beside a SMILES is read from it. Tle = CC(C)(C)[C@H](N)C(=O)O; Nva = CCC[C@H](N)C(=O)O
measured_quantity: pKi

CC[C@@H](C)[C@H](NC(=O)[C@@H]1CCCN1C(=O)[C@@H](N)C(C)C)C(=O)O [Val-Pro-(allo)Ile, Val-Pro-allo-Ile] ... 5.02

(1) CC[C@H](C)[C@H](N)C(=O)N1CCC[C@H]1C(=O)N[C@H](C(=O)O)C(C)(C)C [Ile-Pro-t-butyl-Gly] (H-Ile-Pro-[Tle]-OH; N-terminus and C-terminus assumed)
(2) CC[C@@H](C)[C@H](NC(=O)[C@@H]1CCCN1C(=O)[C@@H](N)[C@@H](C)CC)C(=O)O [Ile−Pro-(allo)Ile, Ile-Pro-allo-Ile]
In: Please tell me which of the two, 1 or 2 , has the higher reported pKi value. State your choice using its label.
Out: 2
(2: 5.28, 1: 4.72)

(I) CC(C)[C@H](N)C(=O)N1CCC[C@H]1C(=O)N[C@H](C(=O)O)C(C)(C)C [Val-Pro-t-butyl-Gly] (H-Val-Pro-[Tle]-OH; N-terminus and C-terminus assumed)
(II) CC(C)[C@H](NC(=O)[C@@H]1CCCN1C(=O)[C@@H](N)C(C)(C)C)C(=O)O [t-butyl-Gly-Pro-Val] (H-[Tle]-Pro-Val-OH; N-terminus and C-terminus assumed)
In: Between the entries labeled I and II , whose measured pKi is lower? Indicate which entry you chose by stating its label.
Out: I
(I: 4.71, II: 5.51)

(a) CC(C)(C)[C@H](N)C(=O)N1CCC[C@H]1C(=O)NCC(=O)O [t-butyl-Gly-Pro-Gly] (H-[Tle]-Pro-Gly-OH; N-terminus and C-terminus assumed)
(b) CCC[C@H](N)C(=O)N1CCC[C@H]1C(=O)N[C@H](C(=O)O)[C@@H](C)CC [Nva-Pro-Ile] (H-[Nva]-Pro-Ile-OH; N-terminus and C-terminus assumed)
In: // which entry reports the smaller pKi, a or b ? Select an item and report its label.
Out: a
(a: 4.82, b: 5.21)

====

Biological target: purified porcine DP IV (Sus scrofa, UniProt P22411)
Assay: Determination of IC50-values, Gly-Pro-pNA cleavage by DP IV
Type: biochemical
Conditions: Gly-Pro-pNA 0.4 mM, HEPES pH 7.6, 30° C.; read-out: IC50
pIC50: −log10 of the molar value. Square brackets hold non-standard residues; d marks the D form. Peptide text beside a SMILES is read from it. Tle = CC(C)(C)[C@H](N)C(=O)O
measured_quantity: pIC50

(1) CC[C@@H](C)[C@H](NC(=O)[C@@H]1CCCN1C(=O)[C@@H](N)[C@@H](C)CC)C(=O)O
(2) CC(C)(C)[C@H](N)C(=O)N1CCC[C@H]1C(=O)NCC(=O)O [t-butyl-Gly-Pro-Gly] (H-[Tle]-Pro-Gly-OH; N-terminus and C-terminus assumed)
In: Endpoint returns whichever of 1 and 2 has the numerically higher pIC50. API: response body contains the label of the selected item.
Out: 1

====

# EC50 per record follows
Molecular target: PEPT1 (Homo sapiens)
Construct: expressed in transfected cells; host or cells: transgenic yeast cells
Sequence (P46059 whole entry, species assumed): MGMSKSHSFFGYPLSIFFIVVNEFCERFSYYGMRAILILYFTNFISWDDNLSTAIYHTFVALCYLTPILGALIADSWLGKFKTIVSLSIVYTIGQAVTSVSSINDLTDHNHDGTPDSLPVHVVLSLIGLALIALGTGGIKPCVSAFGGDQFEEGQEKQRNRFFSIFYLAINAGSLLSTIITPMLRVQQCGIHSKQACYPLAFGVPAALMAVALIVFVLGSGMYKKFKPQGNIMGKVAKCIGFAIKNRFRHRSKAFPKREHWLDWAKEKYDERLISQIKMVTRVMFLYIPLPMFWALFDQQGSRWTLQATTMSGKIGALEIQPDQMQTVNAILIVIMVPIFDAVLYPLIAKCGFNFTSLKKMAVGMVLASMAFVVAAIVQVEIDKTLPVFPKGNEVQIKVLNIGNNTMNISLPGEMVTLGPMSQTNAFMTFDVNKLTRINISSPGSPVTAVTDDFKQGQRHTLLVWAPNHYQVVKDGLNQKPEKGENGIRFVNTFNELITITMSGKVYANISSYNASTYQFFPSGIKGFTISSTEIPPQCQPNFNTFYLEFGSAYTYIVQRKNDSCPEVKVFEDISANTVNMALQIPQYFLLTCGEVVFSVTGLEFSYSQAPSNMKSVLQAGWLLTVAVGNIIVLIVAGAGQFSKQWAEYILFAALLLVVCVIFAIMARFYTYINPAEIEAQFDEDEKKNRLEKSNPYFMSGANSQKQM
Assay: Competition assay with transgenic yeast cells, displacement of radiolabeled tracer dipeptide, PEPT1
Format: binding, mammalian
Details: displacement of radiolabeled tracer dipeptide, transgenic yeast cells; read-out: PEPT1 EC50
Square brackets hold non-standard residues; d marks the D form. Peptide text beside a SMILES is read from it. pS = N[C@@H](COP(=O)(O)O)C(=O)O; Cha = N[C@@H](CC1CCCCC1)C(=O)O; Tle = CC(C)(C)[C@H](N)C(=O)O
Expressed in mM, but write only the number.

Some compounds with recorded EC50:
CC[C@H](C)[C@H](NC(=O)[C@@H]1CCCN1C(=O)[C@@H](N)COP(=O)(O)O)C(=O)O [Ser(P)-Pro-Ile] (H-[pS]-Pro-Ile-OH; N-terminus and C-terminus assumed) ... 4.1
CC[C@@H](C)[C@@H](NC(=O)[C@@H]1CCCN1C(=O)[C@@H](N)C(C)(C)C)C(=O)O [t-butyl-Gly-Pro-D-Ile] (H-[Tle]-Pro-[dI]-OH; N-terminus and C-terminus assumed) ... 10.6
CC[C@H](C)[C@H](NC(=O)[C@@H]1CCCN1C(=O)[C@@H](N)CC1CCCCC1)C(=O)O [Cha-Pro-Ile] (H-[Cha]-Pro-Ile-OH; N-terminus and C-terminus assumed) ... 0.141

In: Request the reported EC50 associated with CC(C)[C@@H](NC(=O)[C@@H]1CCCN1C(=O)[C@@H](N)C(C)(C)C)C(=O)O [t-butyl-Gly-Pro-D-Val] (H-[Tle]-Pro-[dV]-OH; N-terminus and C-terminus assumed)
Out: 11.1
